- TESTED_SYSTEM: T1, IL-1beta (UniProt P01584 117-269)
- T1 construct: also called IL-1β
- PROTOCOL_TEXT: Biacore
Note to self: values exactly at 0.8 fold are 1 (yes). So fold difference in affinity vs parental at or above 0.8 fold is 1 (yes), below is 0 (no).

BINDER	CLASS_NAME
XPA23 Fab, heavy chain Y107D (Fab, V domains shown) VH: EVQLLESGGGLVQPGGSLRLSCAASGFTFSKYFMFWVRQAPGKGLEWVSVISPSGGMTRYADSVKGRFTISRDNSKNTLYLQMNSLRAEDTAVYYCARVGYGGNSDDWGQGTLVTVSS VL: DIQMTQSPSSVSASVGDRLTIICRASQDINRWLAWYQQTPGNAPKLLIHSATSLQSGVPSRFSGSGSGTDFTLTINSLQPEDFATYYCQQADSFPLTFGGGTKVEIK	1 (yes)
XPA23 Fab, heavy chain S54R (Fab, V domains shown) VH: EVQLLESGGGLVQPGGSLRLSCAASGFTFSKYFMFWVRQAPGKGLEWVSVISPRGGMTRYADSVKGRFTISRDNSKNTLYLQMNSLRAEDTAVYYCARVGYGGNSDYWGQGTLVTVSS VL: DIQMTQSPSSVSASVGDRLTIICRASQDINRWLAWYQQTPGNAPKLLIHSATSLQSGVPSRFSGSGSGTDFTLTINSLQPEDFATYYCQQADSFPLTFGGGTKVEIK	1 (yes)
XPA23 Fab, heavy chain Y32N (Fab, V domains shown) VH: EVQLLESGGGLVQPGGSLRLSCAASGFTFSKNFMFWVRQAPGKGLEWVSVISPSGGMTRYADSVKGRFTISRDNSKNTLYLQMNSLRAEDTAVYYCARVGYGGNSDYWGQGTLVTVSS VL: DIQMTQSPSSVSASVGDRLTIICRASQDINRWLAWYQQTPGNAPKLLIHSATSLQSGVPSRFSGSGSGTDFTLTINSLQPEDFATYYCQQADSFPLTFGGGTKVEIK	0 (no)
XPA23 Fab, heavy chain S105H (Fab, V domains shown) VH: EVQLLESGGGLVQPGGSLRLSCAASGFTFSKYFMFWVRQAPGKGLEWVSVISPSGGMTRYADSVKGRFTISRDNSKNTLYLQMNSLRAEDTAVYYCARVGYGGNHDYWGQGTLVTVSS VL: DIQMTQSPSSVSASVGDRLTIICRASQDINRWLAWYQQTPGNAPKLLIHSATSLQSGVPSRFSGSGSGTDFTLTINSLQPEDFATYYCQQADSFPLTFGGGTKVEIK	0 (no)
XPA23 Fab, heavy chain F33Y (Fab, V domains shown) VH: EVQLLESGGGLVQPGGSLRLSCAASGFTFSKYYMFWVRQAPGKGLEWVSVISPSGGMTRYADSVKGRFTISRDNSKNTLYLQMNSLRAEDTAVYYCARVGYGGNSDYWGQGTLVTVSS VL: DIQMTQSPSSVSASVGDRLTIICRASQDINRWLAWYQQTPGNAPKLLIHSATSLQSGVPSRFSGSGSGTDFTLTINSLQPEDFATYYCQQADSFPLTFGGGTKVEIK	0 (no)
